# System: MDA-MB-231
# assay_notes: NCI tumour cell line growth inhibition, 48 h
The source made the active and inactive calls. Rule as the data show it: active = GI50 up to about 1.1 µM and inactive = higher. *1 amine or outer side, *2 acyl side, *3 side chain or, on linkers, in order; H or OH if unused. Where a SMILES comes first, the peptide text is derived from it. [ ]: non-standard residue; d: D form. The star is where a group is joined. ξ: configuration not given here. X43 = CCC(=O)CC(O)CC(C)CC(N[*:1])C(=O)[*:2]; ξLeu(3ξ-OH) = CC(C)C(O)C(N)C(=O)O; ξPro(4ξ-Me) = CC1CNC(C(=O)O)C1; X42 = CCC(C)/C=C/C(=O)*; Aib = CC(C)(N)C(=O)O; X44 = CC(CN(C)C)N*; βAla = NCCC(=O)O
// allowed return values: active, inactive

INPUT: Each compound tested received a call. Report the one for CCC(=O)CC(O)CC(C)CC(NC(=O)C1CC(C)CN1C(=O)/C=C/C(C)CC)C(=O)NC(C(=O)NC(C)(C)C(=O)NC(CC(C)C)C(=O)NC(CC(C)C)C(=O)NC(C)(C)C(=O)NC(C)(C)C(=O)NCCC(=O)NC(C)CN(C)C)C(O)C(C)C (configuration not stated) (X42-[ξPro(4ξ-Me)][X43][ξLeu(3ξ-OH)][Aib]LL[Aib][Aib][βAla]-X44; configuration not given here) .
OUTPUT: active

INPUT: What outcome does the record of this test show for `Cc1cc2nc3ccccc3n2c2nc(N)ccc12` ?
OUTPUT: inactive

INPUT: Dear all, I need the recorded test outcome for N#CC1(C#N)C2C=CC(C3CC=CC32)C1(C#N)C#N (configuration not stated) , thank you.
OUTPUT: inactive

INPUT: Hi, do you know how `Clc1ccccc1C(Nc1ncccn1)Nc1ncccn1` came out in this test?
OUTPUT: inactive

INPUT: Give the logged outcome of this assay for the following compound: CC(C)OP(=O)(OC(C)C)C(C(C)C)N(C)/C(N)=N/C#N (configuration not stated)
OUTPUT: inactive

INPUT: Tell me the recorded outcome of this test for O=S(=O)(O)c1cc(O)c(/N=N/c2ccc3ccccc3c2O)c2ccccc12 [ERIOCHROME BLUE BLACK B] .
OUTPUT: inactive

INPUT: Could you check what this test reported for CCCCC1CCCCCCc2[nH]c(/C=C3\N=C(c4ccc[nH]4)C=C3OC)cc21 (configuration not stated) ?
OUTPUT: active

====

# System: SF-268
# assay_notes: NCI tumour cell line growth inhibition, 48 h
Calls of active or inactive are those of the source. Cut-off read from the data, not from the text of the source: active = GI50 up to about 1.1 µM and inactive = higher.
Would you mind answering with one of these outcomes? Yes for active, No for inactive

INPUT: Which outcome was entered for the compound CC1CC(NN)=Nc2ccccc2N1 (stereo not given) in this test?
OUTPUT: No

INPUT: # lookup: test call for `O=C1c2cc3c(cc2CC12Cc1cc4c(cc1C2)CCC4)CCC3`
OUTPUT: No

INPUT: What is the recorded call for this compound in the test? `CN(C)CCn1c(=O)c2ccc(NCCCN(C)CCCNc3ccc4c(=O)n(CCN(C)C)c(=O)n5c6ccccc6c(=O)c3c45)c3c(=O)c4ccccc4n(c1=O)c23`
OUTPUT: Yes

INPUT: Would you mind telling me which call this test gave CN1CN(C2OC(CO)C(O)C2O)c2nc(N)[nH]c(=O)c21 (stereo not given) ?
OUTPUT: No

INPUT: // return assay outcome for `CCOC(=O)NNC(=O)NCCNC(=O)NNC(=O)OCC`
OUTPUT: No

INPUT: Identify the outcome logged in this assay for the compound shown: `COc1ccc2c(c1)CCCN2CCCCCCCCCCN(CCC(C)C)CCC(C)C`
OUTPUT: No

INPUT: I would be grateful if you could indicate the recorded call for O=c1cnn(C2OC(CO)C(O)C(F)C2O)c(=O)[nH]1 (stereo not given) .
OUTPUT: No

INPUT: Record lookup: outcome of this test for CC(NC1=NCCO1)c1ccco1 (stereo not given) ?
OUTPUT: No

INPUT: Hi, sorry to bother you, what did the test record for CC(=O)/C(=C\c1ccc(Cl)c(Cl)c1)C(=O)C(C)CN(C)C (stereo not given) ?
OUTPUT: No

INPUT: // outcome(item) with item = `C=C(C)c1cc(C(C)(C)C)cc(C(=C)C)c1S(C)(=O)=O`
OUTPUT: No

====

Would you mind telling me the reported GI50 of each entry?
# Test system: ACHN
# assay_notes: NCI tumour cell line growth inhibition, 48 h
Activity calls are given as the source filed them. No stated cut-off is given here; in the data, active = GI50 up to about 1.1 µM and inactive = higher.

GET /values?item= `CN(CC(N)=O)C(=O)N(CCCl)N=O` &system= ACHN returns GI50: > 100 µM (inactive)

Summary: CC(NNC(=O)c1ccncc1)c1ccccc1 (centres undefined) , ACHN, GI50 = > 100 µM (inactive)

The reported ACHN GI50 of `CC1(C)OCN(c2ccc(N3CCOCC3)cc2)Cn2c1nc1ccccc12` is 64 µM (inactive)

The measured GI50 that `O=C(Cc1ccccc1)NN1C(=O)/C(=C\c2ccccc2O)S/C1=N\c1ccccc1` showed for ACHN is > 100 µM (inactive)

// assay ACHN, entry CSc1c([S+](C)[O-])[nH]c2cc(Br)cc(Br)c12 (centres undefined) , GI50 value = 24.5 µM (inactive)

Value (GI50, ACHN) for record O=C(NO)C12C3C4C1C1C2C3C41C(=O)NO (centres undefined) = > 100 µM (inactive)

Entry `CCOC(=O)Cc1[nH]c(C(=O)c2ccccc2)cc1C(=O)c1ccccc1` , tested on ACHN, has a reported GI50 of > 10 µM (inactive)

# value of GI50, ACHN, item `COc1cc2c(cc1OC)C(=O)/C(=C/c1ccc(N(C)C)cc1)CC2` = > 10 µM (inactive)

The reported ACHN GI50 of `Cc1cn([C@H]2[C@@H](CO)C[C@H]2O)c(=O)[nH]c1=O` is > 100 µM (inactive)

Bench note, ACHN: `CC(C)c1cc(C(C)C)c(B(c2ccccc2)c2ccccc2)c(C(C)C)c1B(c1ccccc1)c1ccccc1` , GI50 reads > 100 µM (inactive)

Field GI50 (system: ACHN) for entry `COc1ccccc1/N=N/c1c(O)ccc2ccccc12` = 13.6 µM (inactive)

Noted GI50 for CCOP(=O)(OCC)C(Cc1cn(S(=O)(=O)c2ccc(C)cc2)cn1)C(=O)O (centres undefined) , tested on ACHN: > 100 µM (inactive)

Test item `CN(NC(=O)/C(=C/c1ccc(Cl)cc1)NC(=O)c1ccccc1)c1cn[nH]c(=O)c1Cl` ; ACHN; reported GI50 was > 100 µM (inactive)

Tested on ACHN, the item Cc1ccc(NC(=O)C(=O)C2NC(=S)NC2=O)c([N+](=O)[O-])c1 (centres undefined) showed GI50 equal to > 100 µM (inactive)

====

# Test system: SF-268
# assay_notes: NCI tumour cell line growth inhibition, 48 h
Active and inactive are the calls of the source. Cut-off read from the data, not from the text of the source: active = GI50 up to about 1.1 µM and inactive = higher.
Allowed answers: 1 (yes) = active, 0 (no) = inactive

INPUT: What did the test return for `FC(F)(F)c1ccc2c(c1)N(CCCNCCN1CCOCC1)c1ccccc1S2` ?
OUTPUT: 0 (no)

INPUT: Test call, this compound: `C/C(=N\NC(=O)c1ccncc1)c1ccc2ccccc2c1O`
OUTPUT: 1 (yes)

INPUT: Recorded test call requested for `O=c1cc(-c2ccccc2)nc2[nH]ccn12`
OUTPUT: 0 (no)

INPUT: Recorded test call requested for `CCn1c(=O)c2c3cc(OC(C)=O)ccc3oc2c2ccc(OC(C)=O)cc21`
OUTPUT: 0 (no)

INPUT: What did this assay record as the result for `O=C(C/C=C/c1ccccc1)c1ccccc1` ?
OUTPUT: 0 (no)

INPUT: Entry `CCOC(=O)Cc1[nH]c(C(=O)c2ccccc2)cc1C(=O)c1ccccc1` : call = ?
OUTPUT: 0 (no)

INPUT: # lookup: test call for `Brc1nc2c3ccccc3ncn2c1Br`
OUTPUT: 0 (no)

INPUT: What did the test return for O=C(O)CSC(CC1(c2ccc(Cl)cc2)NC(=O)CS1)c1ccc(Cl)cc1 (stereo not given) ?
OUTPUT: 0 (no)

INPUT: Write down the call the test reported for this compound. Item: `CSc1nc(NCc2ccccc2)c2cnn(COCCO)c2n1`
OUTPUT: 0 (no)

INPUT: Answer briefly: the call reported for COCC1C(=O)c2cc3c(cc2C12C=CC1(C=C2)OCCO1)OCO3 (stereo not given) in this assay.
OUTPUT: 0 (no)

INPUT: // return assay outcome for C[C@]12CCC3c4ccc(O)cc4CC[C@H]3C1CC(=O)N(CCN1CCCC1)C2=O (stereo not given in full)
OUTPUT: 0 (no)

INPUT: For this compound, state the assay outcome: O=S(OC12CC3CC(CC(C3)C1)C2)c1cc(Cl)cc(Cl)c1OCc1ccccc1 (stereo not given)
OUTPUT: 0 (no)

INPUT: Record request — test call for `O=C1C2CCN(CC2)C1(CO)CO`
OUTPUT: 0 (no)

INPUT: Status in this test for `COc1ccc(CSC2=C(C#N)C(=O)NC3(CCCCC3)S2)cc1` ?
OUTPUT: 0 (no)

INPUT: Hi team, can someone confirm the assay call for `CCCCS(=O)(=O)Nc1ccc(Nc2c3ccccc3nc3ccccc23)c(OC)c1` ?
OUTPUT: 0 (no)

INPUT: I would be grateful if you could indicate the recorded call for `O=C(Nc1ccc(F)cc1)c1cc2c(cc1Cl)Sc1nccn1S2(=O)=O` .
OUTPUT: 0 (no)

INPUT: Status in this test for `CC(C)OP(=O)(OC(C)C)c1nc(-c2ccccc2)n(-c2ccc([N+](=O)[O-])cc2)n1` ?
OUTPUT: 0 (no)

INPUT: Can you look up the reported call for `CC1(C)[C@@H](Cn2cnc3c(N)ncnc32)CC[C@@]1(C)CO` for me?
OUTPUT: 0 (no)

INPUT: Assay result, entry `CC(C)(CO[C@H]1C[C@H]2CC[C@@]1(C)C2(C)C)[N+](=O)[O-]` — outcome?
OUTPUT: 0 (no)

INPUT: Assay outcome for `NCCCCN(CCCN)C(=O)c1ccccc1` : what was it?
OUTPUT: 0 (no)

INPUT: Could you kindly confirm the outcome this assay logged for `CC1(C)OCN(c2ccc(N3CCOCC3)cc2)Cn2c1nc1ccccc12` ?
OUTPUT: 0 (no)

INPUT: What did the test return for `C=CCSc1nnc2cc(CN3CCCC3)c(-c3ccc(Cl)cc3)nn12` ?
OUTPUT: 0 (no)

INPUT: Hi, do you know how CC(NNC(=O)c1ccncc1)c1ccccc1 (stereo not given) came out in this test?
OUTPUT: 0 (no)

INPUT: Per the records of this test, what outcome belongs to `COC1=C(OC)C(=O)C(Cc2c(-c3ccccc3)nc3sc(Cl)cn23)=C(C)C1=O` ?
OUTPUT: 0 (no)

INPUT: Please share the test call associated with COc1cc(C2c3cc4c(cc3OC(Nc3ccccc3)C2C)OCO4)cc(OC)c1OC (stereo not given) .
OUTPUT: 0 (no)

INPUT: What is the recorded call for this compound in the test? CC(C)N(C(=O)C12C3C4C5C3C1(C(=O)O)C5C42)C(C)C (stereo not given)
OUTPUT: 0 (no)

INPUT: Field: outcome | Entry: `O=C(O)CCN1C(=S)CSC1=S`
OUTPUT: 0 (no)

INPUT: What call does the record list for `O=c1[nH]c(C2CCCCC2)nc2ccc(Cl)cc12` ?
OUTPUT: 0 (no)

INPUT: For CC(C)[C@@H]1C=C(c2ccccc2)c2ccccc2C1C(C#N)(C#N)C(C)C (stereo not given in full) , which call appears in the assay record?
OUTPUT: 0 (no)

INPUT: Each compound tested received a call. Report the one for `COC(=O)C1Cc2cc3c(cc2C1)CCC3` .
OUTPUT: 0 (no)

Source of measurements: ChEMBL document CHEMBL1201862
